# Tested on: XeIF4E1bΔN27
# PROTOCOL_SUMMARY: time-synchronized fluorescence titration of cap analogue binding
# Design: species or system Xenopus laevis
# STUDY_CONDITIONS: equilibrium association constant; 10% glycerol
# Method: The time-synchronized fluorescence titration method, widely used to determine the affinity constants of cap–eIF4E complexes [[20,22–26]], measures the quenching of the intrinsic fluorescence of tryptophan residues due to cap binding (Fig. S2). […] The final Kas was calculated as a weighted average of 2–6 independent titrations with the weights taken as the reciprocal of the numerical standard deviation squared. […]
ENDPOINT: Kas + glycerol XeIF4E1bΔN27 (μM^− 1)

Reference set, count: 7
- MOLECULE: "Cn1c[n+]([C@@H]2O[C@H](COP(=O)([O-])OP(=O)(O)OP(=O)(O)O)[C@@H](O)[C@H]2O)c2nc(N)[nH]c(=O)c21 [m^7GTP]"
  Kas + glycerol XeIF4E1bΔN27 / μM^− 1: 7.80
- MOLECULE: "Cn1c[n+]([C@@H]2O[C@H](COP(=O)(O)OP(=O)([O-])O)[C@@H](O)[C@H]2O)c2nc(N)[nH]c(=O)c21 [m^7GDP]"
  Kas + glycerol XeIF4E1bΔN27 / μM^− 1: 2.43
- MOLECULE: "Cn1c[n+]([C@@H]2O[C@H](COP(=O)(O)OP(=O)(O)OP(=O)(O)OP(=O)(O)O)[C@@H](O)[C@H]2O)c2nc(N)[nH]c(=O)c21 [m^7Gp4]"
  Kas + glycerol XeIF4E1bΔN27 / μM^− 1: 43.0
- MOLECULE: "CN(C)c1nc2c(c(=O)[nH]1)[n+](C)cn2[C@@H]1O[C@H](COP(=O)(O)OP(=O)(O)OP(=O)(O)O)[C@@H](O)[C@H]1O [m^2,2,7GTP]"
  Kas + glycerol XeIF4E1bΔN27 / μM^− 1: 0.253
- MOLECULE: "Nc1nc2c(c(=O)[nH]1)n(Cc1ccccc1)c[n+]2[C@@H]1O[C@H](COP(=O)(O)OP(=O)(O)O)[C@@H](O)[C@H]1O [bn^7GDP]"
  Kas + glycerol XeIF4E1bΔN27 / μM^− 1: 4.36
- MOLECULE: "CCn1c[n+]([C@@H]2O[C@H](COP(=O)(O)OP(=O)(O)OP(=O)(O)O)[C@@H](O)[C@H]2O)c2nc(N)[nH]c(=O)c21 [et^7GTP]"
  Kas + glycerol XeIF4E1bΔN27 / μM^− 1: 2.26
- MOLECULE: "Cn1c[n+]([C@@H]2O[C@H](COP(=O)(O)OP(=O)(O)OP(=O)(O)OP(=O)(O)OP(=O)(O)O)[C@@H](O)[C@H]2O)c2nc(N)[nH]c(=O)c21 [m^7Gp5]"
  Kas + glycerol XeIF4E1bΔN27 / μM^− 1: 65.6

(I) Cn1c[n+]([C@@H]2O[C@H](COP(=O)(O)OP(=O)([O-])OP(=O)(O)OC[C@H]3O[C@@H](n4cnc5c(=O)[nH]c(N)nc54)[C@H](O)[C@@H]3O)[C@@H](O)[C@H]2O)c2nc(N)[nH]c(=O)c21 [m^7GpppG]
(II) Cn1c[n+]([C@@H]2O[C@H](COP(=O)(O)OP(=O)(O)OP(=O)(O)OC[C@H]3O[C@@H](n4cnc5c(N)ncnc54)[C@H](O)[C@@H]3O)[C@@H](O)[C@H]2O)c2nc(N)[nH]c(=O)c21 [m^7GpppA]
Query :: Given the listed records, identify the one among I and II with higher Kas + glycerol XeIF4E1bΔN27. Could you answer with the label of the item you picked?
Result :: I
(I: 0.883 μM^− 1, II: 0.615 μM^− 1)
